Catalogue of LC retention time values
Test: RP, Waters ACQUITY UPLC HSS C18, 100 × 2.1 mm, 1.7 µm, 40 °C, 0.35 mL/min, estimated dead time 0.63 min; A: water + 0.1% formic acid; B: methanol + 0.1% formic acid; gradient (min/%B) 0/0.5 4/70 4.5/98 5.4/98
Details: stereoisomer not certain
Report as a plain number; the unit min is understood.

Look over these answered cases.
Ask | For the compound Nc1ccn(C2CC(O)C(COP(=O)(O)O)O2)c(=O)n1 (stereo unspecified) , what LC retention time is on record?
Reply | 1.1

Ask | For the compound COc1cc(C(O)CN)ccc1O (stereo unspecified) , what LC retention time is on record?
Reply | 1.16

Others:
Ask | For the compound NCC(O)c1ccccc1 (stereo unspecified) , what LC retention time is on record?
Reply | 2.04

Ask | For the compound NCCCCC(NC(CCc1ccccc1)C(=O)O)C(=O)N1CCCC1C(=O)O (stereo unspecified) , what LC retention time is on record?
Reply | 3.22

Ask | For the compound O=C(O)C(O)Cc1ccc(O)cc1 (stereo unspecified) , what LC retention time is on record?
Reply | 2.87

Ask | For the compound CCCCCCCCCC(=O)OC(CC(=O)[O-])C[N+](C)(C)C (stereo unspecified) , what LC retention time is on record?
Reply | 5.25

Ask | For the compound NC(=O)NC(NC(N)=O)C(=O)O , what LC retention time is on record?
Reply | 0.777

Ask | For the compound CN(C)CCC=C1c2ccccc2COc2ccccc21 , what LC retention time is on record?
Reply | 4.44

Ask | For the compound Cn1cnc2c(ncn2C2OC(CO)C(O)C2O)c1=N (stereo unspecified) , what LC retention time is on record?
Reply | 2.33

Ask | For the compound NC(CCC(=O)O)C(=O)O (stereo unspecified) , what LC retention time is on record?
Reply | 0.764

Ask | For the compound CC(C)(C)NCC(O)c1ccc(O)c(CO)c1 (stereo unspecified) , what LC retention time is on record?
Reply | 2.34

Ask | For the compound O=C(O)C1OC(Oc2c[nH]c3ccccc23)C(O)C(O)C1O (stereo unspecified) , what LC retention time is on record?
Reply | 2.98

---

Assay: RP, Waters ACQUITY UPLC HSS C18, 100 × 2.1 mm, 1.7 µm, 40 °C, 0.35 mL/min, estimated dead time 0.63 min; A: water + 0.1% formic acid; B: methanol + 0.1% formic acid; gradient (min/%B) 0/0.5 4/70 4.5/98 5.4/98
Settings: stereoisomer not certain
Catalogue of LC retention time values
Report as a plain number; the unit min is understood.

Ask | For the compound Nc1ncnc2c1ncn2C1OC2COP(=O)(O)OC2C1O (stereo not given) , what LC retention time is on record?
Reply | 1.95

Others:
Ask | For the compound O=C1CCNC(=O)N1 , what LC retention time is on record?
Reply | 1.16

Ask | For the compound CC(=O)NC(Cc1ccc(O)cc1)C(=O)O (stereo not given) , what LC retention time is on record?
Reply | 2.89

Ask | For the compound CCC(C)(O)C(=O)O (stereo not given) , what LC retention time is on record?
Reply | 2.87

Ask | For the compound Cc1cnc(=O)[nH]c1N , what LC retention time is on record?
Reply | 0.911

---

Experiment: RP, Waters ACQUITY UPLC HSS C18, 100 × 2.1 mm, 1.7 µm, 40 °C, 0.35 mL/min, estimated dead time 0.63 min; A: water + 0.1% formic acid; B: methanol + 0.1% formic acid; gradient (min/%B) 0/0.5 4/70 4.5/98 5.4/98
Conditions: stereoisomer not certain
Threshold 0.9 min. LC retention time below it: True. LC retention time at it or above: False.

Ask | Decide: LC retention time of NC(=O)c1ncn(C2OC(CO)C(O)C2O)c1N (centres undefined) strictly below 0.9 min?
Reply | False

Ask | Decide: LC retention time of O=C(O)c1ccnc2ccccc12 strictly below 0.9 min?
Reply | False

Ask | Decide: LC retention time of O=C(O)c1cccc(O)c1 strictly below 0.9 min?
Reply | False

Ask | Decide: LC retention time of O=C(O)c1cccnc1 strictly below 0.9 min?
Reply | False

Ask | Decide: LC retention time of O=P(O)(O)OCC1OC(O)C(O)C(O)C1O (centres undefined) strictly below 0.9 min?
Reply | True

Others:
Ask | Decide: LC retention time of O=C(O)CCCc1c[nH]c2ccccc12 strictly below 0.9 min?
Reply | False

Ask | Decide: LC retention time of CN(C)CCOC(c1ccccc1)c1ccccc1 strictly below 0.9 min?
Reply | False

Ask | Decide: LC retention time of CN=C(N)N strictly below 0.9 min?
Reply | True

---

Assay: Waters ACQUITY UPLC BEH C18, 100 × 2.1 mm, 1.7 µm, 40 °C, 0.28 mL/min, estimated dead time 0.63 min; A: water + 6.5 mM ammonium hydroxide; B: methanol + 6.5 mM ammonium hydroxide; gradient (min/%B) 0/0.5 4/70 4.5/98 5.4/98
Conditions: stereoisomer not certain
readout_kind: LC retention time (min)
Report as a plain number; the unit min is understood.

Ask | For the molecule CC(=O)NCCc1c[nH]c2ccc(O)cc12 , what LC retention time is on record?
Reply | 3.09

Ask | For the molecule O=C(O)c1cccnc1 , what LC retention time is on record?
Reply | 1.25

Ask | For the molecule Cc1cn(C2CC(O)C(CO)O2)c(=O)[nH]c1=O (stereo not drawn) , what LC retention time is on record?
Reply | 2.34

Others:
Ask | For the molecule C[N+](C)(C)CCCC(=O)[O-] , what LC retention time is on record?
Reply | 0.803

Ask | For the molecule CCCCC1=NC2(CCCC2)C(=O)N1Cc1ccc(-c2ccccc2-c2nn[nH]n2)cc1 , what LC retention time is on record?
Reply | 5.32

Ask | For the molecule OCC1OC(OCC2OC(O)(CO)C(O)C2O)C(O)C(O)C1O (stereo not drawn) , what LC retention time is on record?
Reply | 0.892

Ask | For the molecule NC(=O)c1cccnc1 , what LC retention time is on record?
Reply | 2.14

Ask | For the molecule NC(CS)C(=O)NCC(=O)O (stereo not drawn) , what LC retention time is on record?
Reply | 0.946

Ask | For the molecule COc1ccc(CC(=O)O)cc1OC , what LC retention time is on record?
Reply | 2.66

Ask | For the molecule COC(=O)Cc1c[nH]c2ccccc12 , what LC retention time is on record?
Reply | 5.01

Ask | For the molecule CC(C)CCC(=O)O , what LC retention time is on record?
Reply | 3.06

Ask | For the molecule O=S(=O)(O)c1cccc2cccc(Nc3ccccc3)c12 , what LC retention time is on record?
Reply | 5.12

Ask | For the molecule CC(=O)NC1C(O)OC(CO)C(O)C1OC(C)C(=O)O (stereo not drawn) , what LC retention time is on record?
Reply | 0.854

Ask | For the molecule Cn1c(=O)[nH]c2[nH]c(=O)n(C)c2c1=O , what LC retention time is on record?
Reply | 1.81

Ask | For the molecule O=c1[nH]c(=O)c2[nH]cnc2[nH]1 , what LC retention time is on record?
Reply | 0.977

Ask | For the molecule CC(CCC(=O)O)C1CCC2C3C(O)CC4CC(O)CCC4(C)C3CC(O)C12C (stereo not drawn) , what LC retention time is on record?
Reply | 4.99

Ask | For the molecule Nc1ncnc2c1ncn2C1OC(CO)C(O)C1O (stereo not drawn) , what LC retention time is on record?
Reply | 2.48

Ask | For the molecule N#CCc1c[nH]c2ccccc12 , what LC retention time is on record?
Reply | 4.53

---

Test: Waters ACQUITY UPLC BEH C18, 100 × 2.1 mm, 1.7 µm, 40 °C, 0.28 mL/min, estimated dead time 0.63 min; A: water + 6.5 mM ammonium hydroxide; B: methanol + 6.5 mM ammonium hydroxide; gradient (min/%B) 0/0.5 4/70 4.5/98 5.4/98
Conditions: stereoisomer not certain
Catalogue of LC retention time values
Report as a plain number; the unit min is understood.

Look over these answered cases.
Ask | For the compound O=C(O)C(O)c1cccc(O)c1 (stereo not drawn) , what LC retention time is on record?
Reply | 0.848

Ask | For the compound CN=C(NC#N)NCCSCc1nc[nH]c1C , what LC retention time is on record?
Reply | 3.63

Ask | For the compound C[N+](C)(C)CC(O)CC(=O)[O-] (stereo not drawn) , what LC retention time is on record?
Reply | 1.23

Ask | For the compound CC12CCC(=O)C=C1CCC1C2C(=O)CC2(C)C1CCC2(O)C(=O)CO (stereo not drawn) , what LC retention time is on record?
Reply | 5.05

Ask | For the compound O=C(O)CCCCCCC(=O)O , what LC retention time is on record?
Reply | 0.826

Others:
Ask | For the compound O=C(O)c1cc(=O)c2ccccc2[nH]1 , what LC retention time is on record?
Reply | 2.57

Ask | For the compound Cc1cccc(C(=O)O)c1O , what LC retention time is on record?
Reply | 3.44

Ask | For the compound OCCNCCO , what LC retention time is on record?
Reply | 0.945

Entry source: the RepoRT retention time repository (doi:10.1038/s41586-021-03707-9)
